This collection of values is drawn from PubChem BioAssay AID1159580.

Test: chemical genetic growth profiling, strain panel (AID 1159580);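 further: tested at 20 µM; growth read once vehicle control cultures reached saturation at 30 °C; 1 = growth at the plate median or of vehicle wells; lower values mean less growth of the strain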
Conditions: S. cerevisiae deletion strains, growth OD, locus YLR268W, strain sec22
Among all 5,500 compounds or so, about 2,000 (36%) were called active. Inconclusive results (about 18%) are left out. No stated cut-off is given here; in the data, active means normalized growth mostly below about 0.91 (no sharp cut-off); inconclusive means no clear call, values can overlap the other calls; inactive means mostly above about 0.92. The list shows a part of the results.
Your response should consist of one outcome taken from active, inactive

State the result this test recorded for Nc1c2ccccc2nc2ccccc12 .
active

State the result this test recorded for C[C@@H]1CC[C@]2(C(=O)O)CC[C@]3(C)C(=CCC4[C@@]5(C)CC[C@H](O)C(C)(C)C5CC[C@]43C)C2[C@H]1C (some centres undefined) .
inactive

State the result this test recorded for C[C@@H]1OC(O[C@H]2[C@H](OC(=O)[C@]34CCC(C)(C)CC3C3=CCC5[C@@]6(C)CC[C@H](OC7O[C@@H](C)[C@H](O[C@@H]8OC[C@@H](O)[C@H](O)[C@H]8O)[C@@H](O)[C@H]7O)C(C)(C)C6CC[C@@]5(C)[C@]3(C)CC4O)OC[C@H](O)[C@H]2O)[C@H](O)[C@H](O)[C@H]1O[C@@H]1O[C@H](CO)[C@@H](O)[C@H](O)[C@H]1O (some centres undefined) .
inactive

----------
Test: chemical genetic growth profiling, strain panel (AID 1159580);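 further: tested at 20 µM; growth read once vehicle control cultures reached saturation at 30 °C; 1 = growth at the plate median or of vehicle wells; lower values mean less growth of the strain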
Conditions: S. cerevisiae deletion strains, growth OD, locus YOR083W, strain WHI5 (second series), hits give low values
The campaign covered roughly 5,500 compounds. About 2,000 (36%) were called active. Roughly 18% stayed inconclusive and do not appear here. This is one part of the list.
Consider the following compounds and their measured normalized growth readings.
Response field accepts a number only; no unit should be typed.

{"compound": "Nc1c2c(nc3ccccc13)CCCC2O (centres undefined)", "normalized growth": 0.986}
{"compound": "NC(N)=NN=Cc1c(Cl)cccc1Cl", "normalized growth": 1.01}
{"compound": "NC12CC3CC(CC(C3)C1)C2", "normalized growth": 1}
{"compound": "C/C(O)=C(\\C#N)C(=O)Nc1cc(Br)ccc1Br", "normalized growth": 0.972}

Reported normalized growth of Nc1ncnc2c1nc(Sc1ccc(Cl)cc1)n2C1OC2COP(=O)(O)O[C@@H]2[C@@H]1O (some centres undefined) : 1.02

Reported normalized growth of N=C(N)SCCN : 0.997

Reported normalized growth of Oc1ccc2c3c1O[C@H]1c4[nH]c5ccccc5c4C[C@@]4(O)C(C2)N(CC2CC2)CCC314 (some centres undefined) : 1.01

Reported normalized growth of N=C(N)SCCc1ccc(CCSC(=N)N)cc1 : 0.995

Reported normalized growth of COc1ccc(C(=O)NCc2cccnc2)cc1C(=O)NCc1cccnc1 : 1.02

----------
Assay: chemical genetic growth profiling, strain panel (AID 1159580);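 further: tested at 20 µM; growth read once vehicle control cultures reached saturation at 30 °C; 1 = growth at the plate median or of vehicle wells; lower values mean less growth of the strain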
Details: S. cerevisiae deletion strains, growth OD, locus YOR231W, strain MKK1, hits give low values
The campaign covered roughly 5,500 compounds. About 2,000 (36%) were called active. Roughly 18% stayed inconclusive and do not appear here. The list shows a part of the results.
recorded.metric: normalized growth

Use these answered entries as a reference point.
{"compound": "CCCc1nc(-c2ccccn2)[nH]c(=O)c1CC1CC1", "recorded.metric": "normalized growth", "result": "0.881 (inactive)"}
{"compound": "NCCC(=O)N[C@@H](Cc1cnc[nH]1)C(=O)O", "recorded.metric": "normalized growth", "result": "1.02 (inactive)"}
{"compound": "COc1ccc2c(c1)c(CC(=O)OCC(=O)O)c(C)n2C(=O)c1ccc(Cl)cc1", "recorded.metric": "normalized growth", "result": "0.97 (inactive)"}
{"compound": "O=C1c2c(O)cccc2Cc2cccc(O)c21", "recorded.metric": "normalized growth", "result": "1.07 (inactive)"}
{"compound": "Cc1cc(O)c2c(c1)Cc1cccc(O)c1C2=O", "recorded.metric": "normalized growth", "result": "1.07 (inactive)"}
{"compound": "O=C(NCC1COc2ccccc2O1)c1ccc(Cl)cc1 (stereo not drawn)", "recorded.metric": "normalized growth", "result": "0.771 (inactive)"}
{"compound": "Cc1nc(-c2ccccn2)[nH]c(=O)c1Cc1c(Cl)cccc1Cl", "recorded.metric": "normalized growth", "result": "0.86 (inactive)"}
{"compound": "O=C(NCCNc1ncc(Cl)cc1C(F)(F)F)C(F)(F)Sc1ccccc1", "recorded.metric": "normalized growth", "result": "1.12 (inactive)"}
{"compound": "O=C1C(O)=C(O)C(=O)C(O)=C1O", "recorded.metric": "normalized growth", "result": "0.987 (inactive)"}
{"compound": "COc1ccc2c(c1)c(CC(=O)O)c(C)n2C(=O)c1ccc(Cl)cc1", "recorded.metric": "normalized growth", "result": "0.953 (inactive)"}

Reported normalized growth of O=C(COc1ccc(Cl)cc1)N1CCN(Cc2ccc3c(c2)OCO3)CC1 : 0.999 (inactive)

Reported normalized growth of NC(N)=N/N=C/c1c(Cl)cccc1Cl : 0.987 (inactive)

Reported normalized growth of C/C=C1\[C@H]2C=C(C)C[C@]1(N)c1ccc(=O)[nH]c1C2 : 1.01 (inactive)
